Molecular target: T1, human CD112R on CHO-CD112R cells (human, UniProt Q6DKI7 41-326)
T1 construct: whole, on cells; also called hCD112R; PVRIG
T1 sequence (looked up): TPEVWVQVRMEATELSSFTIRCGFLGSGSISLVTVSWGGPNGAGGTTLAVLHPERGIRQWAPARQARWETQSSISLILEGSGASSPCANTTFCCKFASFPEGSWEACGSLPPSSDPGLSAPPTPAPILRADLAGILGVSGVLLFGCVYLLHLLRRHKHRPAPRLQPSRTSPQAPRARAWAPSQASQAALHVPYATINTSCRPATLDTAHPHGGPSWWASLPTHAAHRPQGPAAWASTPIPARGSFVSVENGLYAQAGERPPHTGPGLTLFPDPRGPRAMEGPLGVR
Experiment: FACS on CHO-CD112R cells; EC50 Ref/EC50 antibody
The entries below come with measured Relative activity (%) values attached.
Express it in %; write the number only.

Chi-70 (antibody, V domains shown, chimeric) VH: DVQLVESGGGLVKLGGSLKLSCVASGFTFSSYHMSWIRQTPEKRLELVAAINSNDINTYYLDTVKGRFTISRDIAKNTLHLQMSSLKSEDTALYYCARHEDYYGFAMDYWGQGTSVTVSS VL: SIVMTQTPKFLLVSAGDRVTITCKASQSVSNDVAWYQQKPGQSPKLLMYYVSNRFTGVPDRFTGSGYGTDFTFTINTVQAEDLAVYFCQQAYRSPWTFGGGTKLEIK :: 1640
Chi-45 (antibody, V domains shown, chimeric) VH: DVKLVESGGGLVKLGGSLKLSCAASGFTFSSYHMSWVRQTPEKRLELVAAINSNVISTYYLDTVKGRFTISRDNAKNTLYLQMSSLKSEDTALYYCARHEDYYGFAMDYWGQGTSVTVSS VL: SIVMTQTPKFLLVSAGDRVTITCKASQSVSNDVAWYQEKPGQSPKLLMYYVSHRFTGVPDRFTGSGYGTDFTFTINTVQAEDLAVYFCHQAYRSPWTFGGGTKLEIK :: 231
Chi-72 (antibody, V domains shown, chimeric) VH: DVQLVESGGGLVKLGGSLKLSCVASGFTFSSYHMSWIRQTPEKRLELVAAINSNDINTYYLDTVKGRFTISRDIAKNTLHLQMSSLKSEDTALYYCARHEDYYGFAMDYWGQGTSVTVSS VL: DIQLTQSPASLSVSVGETVTITCRVSANIYSNLVWYHQRQGKSPQLLVYGGTNLADGVPSRFSGSGSGTQFSLKINSLQSEDFGSYHCQHFWSTPYTFGGGTKLEIK :: 35
Chi-71 (antibody, V domains shown, chimeric) VH: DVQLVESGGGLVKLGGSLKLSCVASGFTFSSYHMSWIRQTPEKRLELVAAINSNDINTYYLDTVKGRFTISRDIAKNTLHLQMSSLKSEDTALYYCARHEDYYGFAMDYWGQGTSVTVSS VL: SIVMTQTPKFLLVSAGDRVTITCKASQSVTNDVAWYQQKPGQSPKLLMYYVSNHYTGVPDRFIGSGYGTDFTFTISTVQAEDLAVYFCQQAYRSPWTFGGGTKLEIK :: 2090

Sample Chi-63 (antibody, V domains shown, chimeric) VH: DVKLVESGGGLVKLGGSLKLSCAASGFTFSSYHMSWVRQTPEKRLELVAAISRDGDSTYYPDTVKGRFTISRDDAENTLYLQMSSLKSEDTALYYCSRHEDYFGFAMDSWGQGTSVTVSS VL: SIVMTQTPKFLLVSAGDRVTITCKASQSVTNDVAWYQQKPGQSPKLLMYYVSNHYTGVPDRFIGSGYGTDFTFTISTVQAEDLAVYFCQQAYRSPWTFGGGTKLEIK — what was its Relative activity (%)?
805

Just for reference, patent US20240309087A1 is where these values come from.
